system under test: CYP3A4 (Homo sapiens)
Sequence (P08684 whole entry): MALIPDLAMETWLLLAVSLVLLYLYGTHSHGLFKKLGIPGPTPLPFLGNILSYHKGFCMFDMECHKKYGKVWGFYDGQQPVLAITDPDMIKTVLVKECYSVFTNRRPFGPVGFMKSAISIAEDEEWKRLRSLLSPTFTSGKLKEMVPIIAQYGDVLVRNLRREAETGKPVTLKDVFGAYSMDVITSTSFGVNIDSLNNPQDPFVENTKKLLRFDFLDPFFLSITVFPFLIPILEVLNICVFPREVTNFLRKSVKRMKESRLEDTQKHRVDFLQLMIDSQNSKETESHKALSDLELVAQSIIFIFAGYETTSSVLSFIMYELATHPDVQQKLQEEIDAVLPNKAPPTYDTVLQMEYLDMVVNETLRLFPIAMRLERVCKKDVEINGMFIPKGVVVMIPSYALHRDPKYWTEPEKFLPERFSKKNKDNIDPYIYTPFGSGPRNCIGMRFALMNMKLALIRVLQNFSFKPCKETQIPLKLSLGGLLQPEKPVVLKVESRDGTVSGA
method: Cytochrome P450 inhibition in human liver microsomes
condition summary: CYP3A4 (midaz) Ki, human liver microsomes; CYP3A4 (midaz)
reported endpoint: Ki (µM)
Give just the numeric value; µM need not be written.

Ask | Fill blank: measured Ki of the compound Clc1ccc2c(N3CCN(CCCN4CCN(c5ccnc6cc(Cl)ccc56)CC4)CC3)ccnc2c1 is ____.
Reply | 3.2

* * *

system under test: CYP1A2 (Homo sapiens)
Sequence (P05177 whole entry): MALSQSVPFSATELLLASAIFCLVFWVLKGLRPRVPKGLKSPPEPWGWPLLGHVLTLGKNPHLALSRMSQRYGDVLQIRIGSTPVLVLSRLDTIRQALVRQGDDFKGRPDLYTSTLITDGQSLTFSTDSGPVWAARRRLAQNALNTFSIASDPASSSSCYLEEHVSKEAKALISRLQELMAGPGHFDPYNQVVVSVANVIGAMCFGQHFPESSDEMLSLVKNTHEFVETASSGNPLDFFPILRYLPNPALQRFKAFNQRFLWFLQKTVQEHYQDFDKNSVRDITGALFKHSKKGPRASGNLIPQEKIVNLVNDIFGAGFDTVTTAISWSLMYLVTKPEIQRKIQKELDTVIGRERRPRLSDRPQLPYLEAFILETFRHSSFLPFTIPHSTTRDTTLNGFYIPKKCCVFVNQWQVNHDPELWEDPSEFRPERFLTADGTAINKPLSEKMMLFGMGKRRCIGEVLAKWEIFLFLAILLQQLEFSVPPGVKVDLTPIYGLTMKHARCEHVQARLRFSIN
method: Cytochrome P450 inhibition in human liver microsomes
reported endpoint: IC50

Here is how some molecules turned out for IC50.
molecule | observed measurement
CC[C@H]1OC(=O)[C@H](C)[C@@H](O[C@H]2C[C@@](C)(OC)[C@@H](O)[C@H](C)O2)[C@H](C)[C@@H](O[C@@H]2O[C@H](C)C[C@H](N(C)C)[C@H]2O)[C@](C)(O)C[C@@H](C)CN(C)[C@H](C)[C@@H](O)[C@]1(C)O | > 20 µM
C[C@H]1[C@H](OC(=O)CCC(=O)O)O[C@@H]2O[C@@]3(C)CC[C@H]4[C@H](C)CC[C@@H]1[C@@]24OO3 [Artesunate] | 20 µM
COc1ccc2nc3cc(Cl)ccc3c(Nc3cc(CN4CCCC4)c(O)c(CN4CCCC4)c3)c2n1 | > 20 µM

Ask | Fill blank: measured IC50 of the molecule N#Cc1cc(NC(=O)[C@H]2c3ccccc3C(=O)N(CC(F)(F)F)[C@@H]2c2cccnc2)ccc1F is ____.
Reply | > 20 µM

Ask | Fill blank: measured IC50 of the molecule C[C@H]1[C@@H](O)O[C@@H]2O[C@@]3(C)CC[C@H]4[C@H](C)CC[C@@H]1[C@@]24OO3 [Dihydroartemisinin] is ____.
Reply | 11 µM

Ask | Fill blank: measured IC50 of the molecule CCNCc1cc(Nc2ccnc3cc(Cl)ccc23)ccc1O is ____.
Reply | > 18 µM
